# measurement protocol: Pharmacokinetics testing, plasma and brain (LC-MS/MS)
# details: male, BABL/c, mouse, brain, oral, 50 mg/kg
parameter measured: Kp
Numbers only.

For COc1ccc(CNc2c(CO)cnc3c(C4CC4)cc(C#N)cc23)cc1Cl , what is its reported Kp?
0.41

----------
# measurement protocol: in vivo
# details: male, BABL/c, mouse, in vivo, po, 50 mg/kg
parameter measured: Cmax (ng/g)
Numbers only, in ng/g.

For COc1ccc(CNc2c(CO)cnc3c(C4CC4)cc(C#N)cc23)cc1Cl , what is its reported Cmax?
385

----------
# measurement protocol: in vivo
# details: male, BABL/c, mouse, in vivo, po, 50 mg/kg, half-life in the plasma
parameter measured: half-life (min)
One number for each entry, in min.

{"columns": ["compound", "output unit", "half-life"],
 "data": [
  ["CCCc1nn(C)c2c(=O)[nH]c(-c3cc(S(=O)(=O)N4CCN(C)CC4)ccc3OCC)nc12 [sildenafil]", "min", 72.6]
]}

For COc1ccc(CNc2c(CO)cnc3c(C4CC4)cc(C#N)cc23)cc1Cl [YF012403] , what is its reported half-life?
79.8

----------
# measurement protocol: in vivo
# details: male, BABL/c, mouse, in vivo, po, 50 mg/kg, half-life in the brain
Exercise: for every item that follows, state its recorded half-life.
Answers without a unit are incomplete; give the number and then its unit.

{"columns": ["chem smiles", "half-life"],
 "data": [
  ["CCCc1nn(C)c2c(=O)[nH]c(-c3cc(S(=O)(=O)N4CCN(C)CC4)ccc3OCC)nc12", "50.4 min"]
]}

In the following, a different molecule is considered.
For COc1ccc(CNc2c(CO)cnc3c(C4CC4)cc(C#N)cc23)cc1Cl , what is its reported half-life?
62.4 min
